This collection of values is drawn from patent US8592421B2.

# Assay Summary: Chronic toxicity of suppositories: indexes of peripheral blood
# Type: in vivo, rats
# Conditions: male rats, suppositories rectally, 50 mg/kg, 1 month; control 152 ± 10.2
Give measured Coagulation, time for each item. Keep answers brief.
Answer in s, number only, no unit symbol.

stdin: Provide one value: measured Coagulation, time of O=c1[nH]n([C@@H]2O[C@H](CO)[C@@H](O)[C@H]2O)c(=O)c2nc(O)cnc12.[Na].[Na]
stdout: 150

stdin: Provide one value: measured Coagulation, time of Nc1cccc2c(=O)[nH][nH]c(=O)c12.[Na]
stdout: 140

stdin: Provide one value: measured Coagulation, time of O=C([O-])c1ncnc2c(=O)n([C@@H]3O[C@H](CO)[C@@H](O)[C@H]3O)[nH]c(=O)c12.[Na+]
stdout: 148

stdin: Provide one value: measured Coagulation, time of O=c1[nH][nH]c(=O)c2c(Br)ncnc12.[K]
stdout: 151

---

# Assay Summary: Morphine abstinence model: nitrites/nitrates NOX− in blood plasma, liver and brain
# Type: in vivo, rats Wistar
# Conditions: Control + Morphine + compound, 20.0 mg/kg intramuscularly; control 18.30 ± 2.14
Give measured Nitrites in blood plasma for each item. Keep answers brief.
Answer in mkmol/ml, number only, no unit symbol.

stdin: Provide one value: measured Nitrites in blood plasma of O=c1[nH][nH]c(=O)c2c(Br)ncnc12.[K]
stdout: 15.33

stdin: Provide one value: measured Nitrites in blood plasma of O=c1[nH][nH]c(=O)c2nccnc12.[Li]
stdout: 16.78

stdin: Provide one value: measured Nitrites in blood plasma of Nc1cccc2c(=O)[nH][nH]c(=O)c12.[Na]
stdout: 13.91

stdin: Provide one value: measured Nitrites in blood plasma of O=c1[nH][nH]c(=O)c2ncccc12.[Li]
stdout: 15.86

---

# Assay Summary: Chronic toxicity of suppositories: indexes of peripheral blood
# Assay type: in vivo, rats
# Conditions: male rats, suppositories rectally, 50 mg/kg, 2 months; control 4.4 + 1.2
Give measured Eosinophiles for each item. Keep answers brief.
Answer in %, number only, no unit symbol.

stdin: Provide one value: measured Eosinophiles of O=c1[nH]n([C@@H]2O[C@H](CO)[C@@H](O)[C@H]2O)c(=O)c2nc(O)cnc12.[Na].[Na]
stdout: 4.0

stdin: Provide one value: measured Eosinophiles of O=c1[nH][nH]c(=O)c2c(Br)ncnc12.[K]
stdout: 4.2

stdin: Provide one value: measured Eosinophiles of Nc1cccc2c(=O)[nH][nH]c(=O)c12.[Na]
stdout: 3.6

stdin: Provide one value: measured Eosinophiles of O=C([O-])c1ncnc2c(=O)n([C@@H]3O[C@H](CO)[C@@H](O)[C@H]3O)[nH]c(=O)c12.[Na+]
stdout: 4.1

---

# Assay Summary: Chronic toxicity of suppositories: indexes of peripheral blood
# Format: in vivo, rats
# Conditions: male rats, suppositories rectally, 50 mg/kg, 2 months; control 2.9 ± 0.2
Test Readout: Reticulocytes (%)
Answer in %, number only, no unit symbol.

stdin: Provide one value: measured Reticulocytes of O=c1[nH][nH]c(=O)c2c(Br)ncnc12.[K] [Compound 37]
stdout: 3.1

stdin: Provide one value: measured Reticulocytes of O=C([O-])c1ncnc2c(=O)n([C@@H]3O[C@H](CO)[C@@H](O)[C@H]3O)[nH]c(=O)c12.[Na+] [Compound 34]
stdout: 2.9

stdin: Provide one value: measured Reticulocytes of Nc1cccc2c(=O)[nH][nH]c(=O)c12.[Na] [Compound 15]
stdout: 3.0

stdin: Provide one value: measured Reticulocytes of O=c1[nH]n([C@@H]2O[C@H](CO)[C@@H](O)[C@H]2O)c(=O)c2nc(O)cnc12.[Na].[Na] [Compound 23]
stdout: 2.8

---

Give measured i for each item. Keep answers brief.
# Assay Summary: Electrochemical activity: polarographic reduction on mercury dripping electrode
# Assay type: physicochemical
# Conditions: pH 7.0; 2.0% sodium chloride background, 37° C., 9·10^−4 M, forward trace; average for the group of compounds
Answer in mkA, number only, no unit symbol.

stdin: Provide one value: measured i of Nc1cccc2c(=O)[nH][nH]c(=O)c12.[Na]
stdout: 0.23

stdin: Provide one value: measured i of O=c1[nH][nH]c(=O)c2ncncc12.[Li]
stdout: 0.30

stdin: Provide one value: measured i of O=c1[nH]n([C@@H]2O[C@H](CO)[C@@H](O)[C@H]2O)c(=O)c2nc(O)cnc12.[Na].[Na]
stdout: 0.32

stdin: Provide one value: measured i of O=C([O-])c1ccc2c(=O)[nH][nH]c(=O)c2c1.O=C([O-])c1ccc2c(=O)[nH][nH]c(=O)c2c1.[Na+].[Na+]
stdout: 0.23

stdin: Provide one value: measured i of O=c1[nH]n([C@@H]2O[C@H](CO)[C@@H](O)[C@H]2O)c(=O)c2ncnc(O)c12.[Na]
stdout: 0.30

stdin: Provide one value: measured i of COP(=O)(OC)C(C)(C)CC(C)=O [Dimesphosphon, reference compound]
stdout: 0.10

---

# Assay Summary: Chronic toxicity of suppositories: indexes of peripheral blood
# Format: in vivo, rats
# Conditions: male rats, suppositories rectally, 50 mg/kg, 1 month; control 2.2 ± 0.4
Give measured REE for each item. Keep answers brief.
Answer in mm/h, number only, no unit symbol.

stdin: Provide one value: measured REE of O=c1[nH]n([C@@H]2O[C@H](CO)[C@@H](O)[C@H]2O)c(=O)c2nc(O)cnc12.[Na].[Na]
stdout: 1.7

stdin: Provide one value: measured REE of O=C([O-])c1ncnc2c(=O)n([C@@H]3O[C@H](CO)[C@@H](O)[C@H]3O)[nH]c(=O)c12.[Na+]
stdout: 1.8

stdin: Provide one value: measured REE of O=c1[nH][nH]c(=O)c2c(Br)ncnc12.[K]
stdout: 1.8

stdin: Provide one value: measured REE of Nc1cccc2c(=O)[nH][nH]c(=O)c12.[Na]
stdout: 1.8

---

# Assay Summary: Chronic toxicity of suppositories: indexes of peripheral blood
# Format: in vivo, rats
# Conditions: male rats, suppositories rectally, 50 mg/kg, 2 months; control 1.4 ± 0.2
Test Readout: REE (mm/h)
Answer in mm/h, number only, no unit symbol.

stdin: Provide one value: measured REE of Nc1cccc2c(=O)[nH][nH]c(=O)c12.[Na]
stdout: 1.6

stdin: Provide one value: measured REE of O=c1[nH]n([C@@H]2O[C@H](CO)[C@@H](O)[C@H]2O)c(=O)c2nc(O)cnc12.[Na].[Na]
stdout: 1.5

stdin: Provide one value: measured REE of O=C([O-])c1ncnc2c(=O)n([C@@H]3O[C@H](CO)[C@@H](O)[C@H]3O)[nH]c(=O)c12.[Na+]
stdout: 1.7

stdin: Provide one value: measured REE of O=c1[nH][nH]c(=O)c2c(Br)ncnc12.[K]
stdout: 1.6

---

Give measured Nitrites in liver for each item. Keep answers brief.
# Assay Summary: Morphine abstinence model: nitrites/nitrates NOX− in blood plasma, liver and brain
# Assay type: in vivo, rats Wistar
# Conditions: Control + Morphine + compound, 20.0 mg/kg intramuscularly; control 0.260 ± 0.023

stdin: Provide one value: measured Nitrites in liver of O=c1[nH][nH]c(=O)c2nccnc12.[Li]
stdout: 0.287 ± 0.01 nmol/mg of protein

stdin: Provide one value: measured Nitrites in liver of O=c1[nH][nH]c(=O)c2ncccc12.[Li]
stdout: 0.294 ± 0.02 nmol/mg of protein

stdin: Provide one value: measured Nitrites in liver of Nc1cccc2c(=O)[nH][nH]c(=O)c12.[Na]
stdout: 0.285 ± 0.02 nmol/mg of protein

stdin: Provide one value: measured Nitrites in liver of O=c1[nH][nH]c(=O)c2c(Br)ncnc12.[K]
stdout: 0.274 ± 0.01 nmol/mg of protein

---

# Assay Summary: Electrochemical activity: polarographic reduction on mercury dripping electrode
# Assay type: physicochemical
# Conditions: calculated with Geirovsky-Ilkovich equation
Test Readout: number of electrons participating in the reduction reaction
Please state the value as a number alone, without comment.

stdin: Provide one value: measured number of electrons participating in the reduction reaction of O=c1[nH]n([C@@H]2O[C@H](CO)[C@@H](O)[C@H]2O)c(=O)c2nc(O)cnc12.[Na].[Na] [Compound 23]
stdout: 3.72

stdin: Provide one value: measured number of electrons participating in the reduction reaction of Nc1cccc2c(=O)n([C@@H]3O[C@H](CO)[C@@H](O)[C@H]3O)[nH]c(=O)c12.[Na] [Compound 10]
stdout: 4.09

stdin: Provide one value: measured number of electrons participating in the reduction reaction of COP(=O)(OC)C(C)(C)CC(C)=O [Dimesphosphon, reference compound]
stdout: 1.6

stdin: Provide one value: measured number of electrons participating in the reduction reaction of O=c1[nH][nH]c(=O)c2nccnc12.[Li] [Compound 25]
stdout: 3.72

stdin: Provide one value: measured number of electrons participating in the reduction reaction of Nc1cccc2c(=O)[nH][nH]c(=O)c12.[Na] [Compound 15]
stdout: 4.09
